# Test Method Notes: in vitro
# Experimental Conditions: human, liver microsomes
Quantity Kind: half-life (h)
Numeric only. Scale: h

query: For the compound shown here, "CCC(CC)O[C@@H]1C=C(C(=O)O)C[C@H](NC(=O)NN)[C@H]1NC(C)=O" , give the reported half-life.
result: 1.22

----------
# Test Method Notes: Stability of the compound in human plasma assessed as parent compound remaining measured after 30 mins
# Assay type: ADME, cell-free
# Experimental Conditions: read-out: Stabilty
Quantity Kind: remaining at 0.5 h

query: Return reported remaining at 0.5 h; argument: "CCC(CC)O[C@@H]1C=C(C(=O)O)C[C@H](NC(=O)NN)[C@H]1NC(C)=O"
result: 98.8%

----------
# Test Method Notes: in vitro
# Experimental Conditions: mouse, liver microsomes
Quantity Kind: half-life (min)
Your answer is read as min, so omit the unit and give the number.

query: GET /values?readout=half-life&item= "CCC(CC)O[C@@H]1C=C(C(=O)O)C[C@H](NC(=O)NN)[C@H]1NC(C)=O"
result: 49.7

----------
Parameter 'readout' = IC50; parameter 'system' = Neuraminidase (Influenza A virus, UniProt B4URF0).
Sequence (B4URF0 whole entry): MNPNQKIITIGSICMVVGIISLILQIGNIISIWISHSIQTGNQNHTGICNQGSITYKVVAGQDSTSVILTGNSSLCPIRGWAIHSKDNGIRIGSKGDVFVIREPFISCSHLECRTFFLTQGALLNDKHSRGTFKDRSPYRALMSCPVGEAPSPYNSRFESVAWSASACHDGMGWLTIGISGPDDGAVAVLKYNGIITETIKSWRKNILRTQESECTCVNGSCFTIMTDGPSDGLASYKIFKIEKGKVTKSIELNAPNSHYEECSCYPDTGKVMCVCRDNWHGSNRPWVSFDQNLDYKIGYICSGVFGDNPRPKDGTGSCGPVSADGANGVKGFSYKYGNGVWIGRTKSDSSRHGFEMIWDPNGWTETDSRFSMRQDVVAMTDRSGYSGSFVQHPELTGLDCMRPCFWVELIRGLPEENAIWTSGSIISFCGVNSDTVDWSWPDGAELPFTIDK

Consider the following illustrative entries.
CCCCCCCCNNC(=O)N[C@H]1CC(C(=O)O)=C[C@@H](OC(CC)CC)[C@@H]1NC(C)=O | > 10000 nM
CCC(CC)O[C@@H]1C=C(C(=O)O)C[C@H](NC(=O)NNCC2CC2)[C@H]1NC(C)=O | 4110 nM

query: Entry under review: "CCC(CC)O[C@@H]1C=C(C(=O)O)C[C@H](NC(=O)NNCCC(C)C)[C@H]1NC(C)=O" . Reported IC50?
result: 1530 nM

query: Subsequent entry: "CCC(CC)O[C@@H]1C=C(C(=O)O)C[C@H](NC(=O)NNCc2ccc(Cl)cc2)[C@H]1NC(C)=O"
result: 875 nM

----------
# Test Method Notes: Stability of the compound in human plasma assessed as parent compound remaining measured after 10 mins
# Format: ADME, cell-free
# Experimental Conditions: read-out: Stabilty
Quantity Kind: remaining at 10 min (%)
Give just the number in %; leave the unit off.

query: Given the entry "CCC(CC)O[C@@H]1C=C(C(=O)O)C[C@H](NC(=O)NN)[C@H]1NC(C)=O" , report its measured remaining at 10 min.
result: 88.6

----------
# Study System: Neuraminidase (Influenza A virus)
pIC50: −log10 of the molar value.
Entry flag: class 1 if pIC50 reaches 6; class 0 if it does not.

CCC(CC)O[C@@H]1C=C(C(=O)O)C[C@H](NC(=O)NNCc2ccc(OC)cc2)[C@H]1NC(C)=O | class 1

query: Is the recorded value of pIC50 equal to or greater than 6 for this compound? "CCCCNNC(=O)N[C@H]1CC(C(=O)O)=C[C@@H](OC(CC)CC)[C@@H]1NC(C)=O"
result: class 1

query: Same lookup for "CCC(CC)O[C@@H]1C=C(C(=O)O)C[C@H](NC(=O)NNCCc2ccccc2)[C@H]1NC(C)=O" , please.
result: class 0

----------
# Test Method Notes: Stability of the compound in human plasma assessed as parent compound remaining measured after 60 mins
# Type: ADME, cell-free
# Experimental Conditions: read-out: Stabilty
Quantity Kind: remaining at 1 h
A bare number is not enough; add the unit after it.

query: Reported remaining at 1 h for "CCC(CC)O[C@@H]1C=C(C(=O)O)C[C@H](NC(=O)NN)[C@H]1NC(C)=O" : what is it?
result: 99.5%
